biological target: GCN2 kinase (Homo sapiens); test: GCN2 enzyme inhibition assay (Transcreener ADP2 fluorescence polarization); type: biochemical; conditions: Enzyme activity for compounds of Formula IV; Ki(app), 280 μM ATP, 25° C.
Sequence (Q9P2K8 whole entry): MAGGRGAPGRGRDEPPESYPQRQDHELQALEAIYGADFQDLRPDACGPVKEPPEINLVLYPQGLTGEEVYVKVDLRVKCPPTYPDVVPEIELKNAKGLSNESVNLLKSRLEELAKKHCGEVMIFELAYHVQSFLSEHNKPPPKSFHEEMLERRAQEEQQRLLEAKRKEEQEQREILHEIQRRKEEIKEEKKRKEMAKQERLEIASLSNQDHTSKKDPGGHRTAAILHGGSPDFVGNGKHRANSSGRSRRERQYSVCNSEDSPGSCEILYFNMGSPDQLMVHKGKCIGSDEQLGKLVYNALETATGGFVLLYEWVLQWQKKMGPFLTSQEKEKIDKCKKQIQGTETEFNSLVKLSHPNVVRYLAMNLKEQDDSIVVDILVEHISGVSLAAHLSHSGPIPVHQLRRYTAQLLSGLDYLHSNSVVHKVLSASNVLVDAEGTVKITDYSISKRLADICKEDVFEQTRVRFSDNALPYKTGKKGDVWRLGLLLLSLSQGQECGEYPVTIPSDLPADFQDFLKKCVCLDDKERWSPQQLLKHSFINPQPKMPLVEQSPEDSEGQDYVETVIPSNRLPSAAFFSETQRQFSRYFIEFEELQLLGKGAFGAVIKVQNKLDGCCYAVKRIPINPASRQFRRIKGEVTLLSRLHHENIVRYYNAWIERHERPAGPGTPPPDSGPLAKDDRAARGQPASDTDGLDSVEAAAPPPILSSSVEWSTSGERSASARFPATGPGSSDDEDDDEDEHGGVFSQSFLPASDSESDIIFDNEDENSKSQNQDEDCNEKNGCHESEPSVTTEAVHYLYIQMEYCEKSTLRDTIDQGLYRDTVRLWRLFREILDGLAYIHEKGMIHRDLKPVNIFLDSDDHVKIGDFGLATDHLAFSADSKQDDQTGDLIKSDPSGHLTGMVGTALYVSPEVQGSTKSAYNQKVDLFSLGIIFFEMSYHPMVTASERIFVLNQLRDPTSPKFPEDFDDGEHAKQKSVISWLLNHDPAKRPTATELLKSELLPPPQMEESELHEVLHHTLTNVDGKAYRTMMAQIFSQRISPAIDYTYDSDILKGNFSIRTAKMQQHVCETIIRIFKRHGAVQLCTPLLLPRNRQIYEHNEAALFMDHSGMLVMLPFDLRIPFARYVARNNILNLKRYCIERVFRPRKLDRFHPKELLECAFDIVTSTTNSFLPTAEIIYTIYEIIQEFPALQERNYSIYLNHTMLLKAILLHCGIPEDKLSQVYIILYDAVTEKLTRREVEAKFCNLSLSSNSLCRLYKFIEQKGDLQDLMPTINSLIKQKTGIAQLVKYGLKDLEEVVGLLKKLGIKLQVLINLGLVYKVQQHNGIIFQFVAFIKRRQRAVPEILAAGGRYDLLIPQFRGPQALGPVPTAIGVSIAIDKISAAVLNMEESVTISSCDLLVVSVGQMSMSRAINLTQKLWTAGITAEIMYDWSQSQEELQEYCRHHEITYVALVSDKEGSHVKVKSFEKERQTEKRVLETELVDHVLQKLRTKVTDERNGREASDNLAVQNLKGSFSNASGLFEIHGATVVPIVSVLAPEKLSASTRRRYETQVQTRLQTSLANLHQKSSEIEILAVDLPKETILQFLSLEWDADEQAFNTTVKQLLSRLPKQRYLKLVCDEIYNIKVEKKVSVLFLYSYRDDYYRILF
pKi: −log10 of the molar value.
What pKi was measured for each of the following?

For `CC(=O)N1CCN(c2ccnc(-c3cnc4cnc(C(N)=O)cn34)n2)CC1(C)C` the compound record lists pKi as 6.00 to 7.00

# compound CC1C(c2cn[nH]c2)CCCN1c1ccnc(-c2cnc3cnc(C(F)(F)F)cn23)n1 (single isomer, unassigned) [IV-420] ; its pKi = > 8.00

Looking up `CS(=O)(=O)N1C2CCC1CN(c1ccnc(-c3cnc4cnc(C(F)F)cn34)n1)C2` , I found its pKi recorded as 6.00 to 7.00

Notebook: CC1(O)CCCN(c2ccnc(-c3cnc4cnc(C(F)F)cn34)n2)CC1 (stereo not shown) , pKi read as 6.00 to 7.00

Lab book: pKi of `NC(=O)N1CCN(c2ccnc(-c3cnc4cnc(C(F)(F)F)cn34)n2)CC1` noted as 6.00 to 7.00

# map each compound to its pKi
1. FC(F)(F)c1cn2c(-c3nccc(N4CCC(C5CCCC5)C4)n3)cnc2cn1 (stereo not shown)
2. Cc1n[nH]c(C)c1C1CCN(c2ccnc(-c3cnc4cnc(C(F)(F)F)cn34)n2)C1 (stereo not shown)
3. C[C@@H]1CCC[C@H](C)N1c1ccnc(-c2cnc3cnc(C(F)F)cn23)n1

6.00 to 7.00
7.00 to 8.00
6.00 to 7.00

# return pKi for each item in the list
1. NCC1CCCN(c2ccnc(-c3cnc4cnc(C(F)F)cn34)n2)C1 (stereo not shown)
2. OCC1CC(c2cn[nH]c2)CN(c2ccnc(-c3cnc4cnc(C(F)(F)F)cn34)n2)C1 (stereo not shown)
3. COc1cc(N2CC(C)NC(c3cn[nH]c3)C2C)nc(-c2cnc3cnc(C(F)(F)F)cn23)n1 (stereo not shown)
4. CC1C(c2cn[nH]c2)OCCN1c1ccnc(-c2cnc3cnc(Br)cn23)n1 (single isomer, unassigned) [IV-328]
5. CS(=N)(=O)CC1CCCN(c2ccnc(-c3cnc4cnc(C(F)F)cn34)n2)C1 (single isomer, unassigned) [IV-338]

["6.00 to 7.00", "> 8.00", "> 8.00", "> 8.00", "6.00 to 7.00"]

====

I'd be grateful if you could share measured Ki for these entries.
molecular target: GCN2 kinase (Homo sapiens); assay: GCN2 enzyme inhibition assay (Transcreener ADP2 fluorescence polarization); assay type: biochemical; settings: Enzyme activity for compounds of Formula IV; Ki(app), 280 μM ATP, 25° C.

Consider the reported Ki for these compounds:
Given item NC(=O)C1CCN(c2ccnc(-c3cnc4cnc(C(F)(F)F)cn34)n2)C1 (stereo not shown) , the value recorded as its Ki is 100 to 1000 nM

// field: Ki; key: `FC(F)c1cn2c(-c3nccc(C4=CCCC4)n3)cnc2cn1` ; value = 100 to 1000 nM

Record summary for CC1CN(c2ccnc(-c3cnc4cnc(C(F)(F)F)cn34)n2)CC(c2c[nH]cn2)O1 (single isomer, unassigned) [IV-405] : reported Ki = < 10 nM

---
// sample CCN1CCN(c2ccnc(-c3cnc4cnc(Br)cn34)n2)[C@@H](c2cn[nH]c2)[C@H]1C (relative stereo) , its Ki was 100 to 1000 nM
